System: Rattus norvegicus
Test: Apparent half life in Sprague-Dawley rat at 20 mg/kg, po
Assay type: ADME, organism-based
Set-up: dose 20 mg/kg, route oral
Settings: in vivo
attribute-measured: t1/2(app) (h)
# output: bare number, implied unit h

Problem: Give t1/2(app) for O=C(/C=C/c1ccc(OC(F)F)c(OC(F)F)c1)Nc1ccccc1C(=O)O
Result: 5.4

====

Assay: Cmax in Sprague-Dawley rat at 20 mg/kg, po
Type: ADME, organism-based
Parameters: dose 20 mg/kg, route oral
Conditions: Sprague-Dawley, in vivo
attribute-measured: Cmax (µM)
# output: bare number, implied unit µM

Problem: Give Cmax for COc1ccc(/C=C/C(=O)Nc2ccccc2C(=O)O)cc1OC
Result: 118

====

Test: Oral bioavailability in Sprague-Dawley rat at 20 mg/kg
Type: ADME, organism-based
Conditions: in vivo
attribute-measured: bioavailability
State the result as a value with its unit after it.

COc1ccc(/C=C/C(=O)Nc2ccccc2C(=O)O)cc1OC; 125%

Moving on to another compound below.
Problem: Give bioavailability for O=C(/C=C/c1ccc(OC(F)F)c(OC(F)F)c1)Nc1ccccc1C(=O)O
Result: 73%

====

Test system: Rattus norvegicus
Experiment: Cmax in Sprague-Dawley rat at 20 mg/kg, po
Assay type: ADME, organism-based
Design: dose 20 mg/kg, route oral
Details: in vivo
attribute-measured: Cmax (µM)
# output: bare number, implied unit µM

Problem: Give Cmax for O=C(/C=C/c1ccc(OC(F)F)c(OC(F)F)c1)Nc1ccccc1C(=O)O
Result: 200

====

Assay: Apparent half life in Sprague-Dawley rat at 5 mg/kg, iv
Type: ADME, organism-based
Set-up: dose 5 mg/kg, route intravenous
Conditions: in vivo, read-out: t1/2(app) (converted)
attribute-measured: half-life (min)
# output: bare number, implied unit min

COc1ccc(/C=C/C(=O)Nc2ccccc2C(=O)O)cc1OC [TRANILAST]; 186

Moving on to another compound below.
Problem: Give half-life for O=C(/C=C/c1ccc(OC(F)F)c(OC(F)F)c1)Nc1ccccc1C(=O)O
Result: 468

The measured values listed here are drawn from ChEMBL document CHEMBL3091327.
